System: B16-F10
Assay: Antiproliferative activity against mouse B16F10 cells after 48 hrs by MTT based ELISA assay
Type: functional, cell-based
Details: B16-F10, 48 h
Field: IC50. Provide a value for each of the molecules that follow.
Give bare numbers, in µg/mL.

Worked examples, 3 molecules total:
O=C(/C=C/c1ccccc1[N+](=O)[O-])NS(=O)(=O)c1ccc(F)cc1 ... 6
Cc1ccc(S(=O)(=O)NC(=O)/C=C/c2ccc(Br)cc2)cc1 ... 12.1
O=C(/C=C/c1ccccc1[N+](=O)[O-])NS(=O)(=O)c1ccccc1 ... 6

Hi team, please reply with IC50 for each item in this list.
1. CN(C)c1ccc(/C=C/C(=O)NS(=O)(=O)c2ccc(Br)cc2)cc1
2. O=C(/C=C/c1ccc(F)cc1)NS(=O)(=O)c1ccc(F)cc1
3. O=C(/C=C/c1ccccc1[N+](=O)[O-])NS(=O)(=O)c1ccc(Br)cc1
4. Cc1ccc(S(=O)(=O)NC(=O)/C=C/c2ccccc2[N+](=O)[O-])cc1

A.
[4.2, 0.8, 12.6, 10.3]
